Assay: Brain homogenate tissue binding and stability (RED device)
Assay type: in vitro ADME, mouse
Conditions: C57BL/6, mouse, brain homogenate (4 times diluted), pH 7.4, mouse brain tissue binding, RED, 4 h; read-out: % Bound R1 (converted)
Procedure: Carbamazepine (Apin Chemicals) served as a positive control for brain tissue binding. Test compounds and the positive control were initially dissolved in DMSO to make 1 mM stock solutions. […] Prodrug metabolism and 2i concentrations were determined by fit-for-purpose LC-MS/MS methods on a nine-point calibration curve ranging from 0.12 to 7.5 μM.
Here, each record is paired with measured fraction unbound at 4 h, 5 µM data.
Number, no unit, nothing else.

**Query** What does the record list as fraction unbound at 4 h, 5 µM for O=C(O)CCC(=O)N1N=C(c2c(-c3ccc(Cl)cc3)c3ccccc3[nH]c2=O)CC1c1ccc(Cl)cc1 (stereo not shown) [2a] ?
**Result** 0.001

**Query** Look at this molecule and give its reported fraction unbound at 4 h, 5 µM. NC(=O)N1c2ccccc2C=Cc2ccccc21 [Carbamazepine, reference compound]
**Result** 0.131

====

assay: Mouse plasma and brain pharmacokinetics, IP administration; type: in vivo; conditions: male, C57BL/6, mouse, brain, intraperitoneal, 10 mg/kg, 10 mg/kg IP; 2 h; read-out: brain calculated concentration, Mean
parameter: concentration at 2 h (ng/g)
Express it in ng/g; write the number only.

**Query** Report concentration at 2 h for O=C(O)CC(F)(F)C(=O)N1N=C(c2c(-c3ccc(Cl)cc3)c3ccccc3[nH]c2=O)CC1c1ccc(Cl)cc1 (stereo not shown) [2i] please.
**Result** 19.4

====

biological target: CYP2D6 (Homo sapiens); construct: purchased Corning; host or cells: insect cells (microsomes); test: Fluorometric CYP450 enzyme inhibition assay, CYP2D6; format: in vitro ADME; conditions: n = 2 (2k n = 4)
Sequence (P10635 whole entry): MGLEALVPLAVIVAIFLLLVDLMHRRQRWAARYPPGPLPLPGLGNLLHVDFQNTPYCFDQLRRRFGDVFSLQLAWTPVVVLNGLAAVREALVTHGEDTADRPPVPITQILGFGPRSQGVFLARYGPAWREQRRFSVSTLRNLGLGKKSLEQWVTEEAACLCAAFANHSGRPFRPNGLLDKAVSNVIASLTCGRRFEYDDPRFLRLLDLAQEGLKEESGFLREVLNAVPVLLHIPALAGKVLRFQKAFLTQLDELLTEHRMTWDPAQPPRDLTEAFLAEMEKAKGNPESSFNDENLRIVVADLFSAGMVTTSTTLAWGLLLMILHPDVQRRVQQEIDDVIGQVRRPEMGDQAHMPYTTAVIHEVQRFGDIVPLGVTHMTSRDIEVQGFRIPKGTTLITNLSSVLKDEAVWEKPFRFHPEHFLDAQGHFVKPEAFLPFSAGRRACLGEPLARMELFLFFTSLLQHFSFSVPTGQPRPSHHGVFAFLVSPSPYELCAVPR
parameter: IC50

Sample records with IC50:
>>> reported_value("CC(C)(C)COC(=O)CC(F)(F)C(=O)N1N=C(c2c(-c3ccc(Cl)cc3)c3ccccc3[nH]c2=O)CC1c1ccc(Cl)cc1 (stereo not drawn) [2o]")
"> 20 µM"
>>> reported_value("O=C(O)CCC(=O)N1N=C(c2c(-c3ccc(Cl)cc3)c3ccccc3[nH]c2=O)CC1c1ccc(Cl)cc1 (stereo not drawn) [2a]")
"18 µM"
>>> reported_value("CN(C)C(=O)CC(F)(F)C(=O)N1N=C(c2c(-c3ccc(Cl)cc3)c3ccccc3[nH]c2=O)CC1c1ccc(Cl)cc1 (stereo not drawn) [2r]")
"> 20 µM"
>>> reported_value("CC(C)OC(=O)CC(F)(F)C(=O)N1N=C(c2c(-c3ccc(Cl)cc3)c3ccccc3[nH]c2=O)CC1c1ccc(Cl)cc1 (stereo not drawn) [2m]")
"> 20 µM"
>>> reported_value("CCOC(=O)CC(F)(F)C(=O)N1N=C(c2c(-c3ccc(Cl)cc3)c3ccccc3[nH]c2=O)CC1c1ccc(Cl)cc1 (stereo not drawn) [2l]")
"> 20 µM"

Could you now look at the following compound, please?
**Query** Item O=C(CC(F)(F)C(=O)N1N=C(c2c(-c3ccc(Cl)cc3)c3ccccc3[nH]c2=O)CC1c1ccc(Cl)cc1)OCC1CC1 (stereo not drawn) [2n] with CYP2D6 (Homo sapiens) - IC50?
**Result** > 20 µM

====

assay: Mouse plasma and brain pharmacokinetics, IP administration; assay type: in vivo; conditions: male, C57BL/6, mouse, brain and plasma, ip, 10 mg/kg, 10 mg/kg IP; 1 h; read-out: Brain/plasma Ratio, Mean
parameter: Kp at 1 h
// no unit, no text: just the number

**Query** State the recorded Kp at 1 h for this entry: O=C(O)CC(F)(F)C(=O)N1N=C(c2c(-c3ccc(Cl)cc3)c3ccccc3[nH]c2=O)CC1c1ccc(Cl)cc1 (stereo not shown) [2i]
**Result** 0.013

Values were extracted from paper PMC10485906.
